- methodDescription: absorption spectrum (maximum absorption wavelength, molar extinction coefficient)
- Type: physicochemical
assayReadout: molar extinction coefficient

Observe how each entry below is paired with its result.
compound="COc1c(NCCNCCOCCOCCOCCOCCO)c2c(=O)cc(OC)c3c4c(OC)cc(=O)c5c(O)c(NCCNCCOCCOCCOCCOCCO)c6c(c(c1C(C(C)=O)C(C)=C6)c23)c54 (stereo not shown)" assayreadout="molar extinction coefficient" result="30,500 M^−1cm^−1"
compound="COc1c2c3c4c(c(NC(CCC(=O)O)C(=O)O)c(=O)c5c(O)cc(OC)c(c6c(OC)cc(NC(CCC(=O)O)C(=O)O)c(c1=O)c63)c54)C=C(C)C2C(C)=O (stereo not shown) [HB-28d]" assayreadout="molar extinction coefficient" result="20,500 M^−1cm^−1"
compound=COc1c(O)c2c(=O)cc(OC)c3c4c(OC)cc(=O)c5c(NCCCC(=O)NCC[N+](C)(C)C)c(NCCCC(=O)NCC[N+](C)(C)C)c6c(c(c1CC(C)=C6)c23)c54 assayreadout="molar extinction coefficient" result="30,000 M^−1cm^−1"
compound="COc1c(O)c2c(=O)cc(OC)c3c4c(OC)cc(=O)c5c(NCC(=O)O)c(NCC(=O)O)c6c(c(c1C(C(C)=O)C(C)=C6)c23)c54 (stereo not shown)" assayreadout="molar extinction coefficient" result="26,500 M^−1cm^−1"
compound="COc1c(NC2CCC(O)CC2)c2c(=O)cc(OC)c3c4c(OC)cc(=O)c5c(O)c(NC6CCC(O)CC6)c6c(c(c1C(C(C)=O)C(C)=C6)c23)c54 (stereo not shown) [HB-17b]" assayreadout="molar extinction coefficient" result="25,500 M^−1cm^−1"
compound="COc1c(NCCCC(=O)O)c2c(=O)cc(OC)c3c4c(OC)cc(=O)c5c(O)c(NCC(=O)O)c6c(c(c1C(C(C)=O)C(C)=C6)c23)c54 (stereo not shown) [HB-43b]" assayreadout="molar extinction coefficient" result="26,000 M^−1cm^−1"

// molar extinction coefficient lookup, compound = COCCOCCOCCOCCOCCOCCOC(=O)C1CCC(Nc2c(O)c3c(=O)cc(OC)c4c5c(OC)cc(=O)c6c(NC7CCC(C(=O)OCCOCCOCCOCCOCCOCCOC)CC7)c(OC)c7c(c(c2C=C(C)C7C(C)=O)c34)c65)CC1 (stereo not shown) [HB-14b-PEG6] , result: 30,500 M^−1cm^−1

###

Attribute: maximum absorption wavelength
- methodDescription: absorption spectrum (maximum absorption wavelength, molar extinction coefficient)
- Assay type: physicochemical
Write the value in nm as a bare number.

compound=COCCOCCOCCOCCOCCOCCOC(=O)CCCNc1c(O)c2c(=O)cc(OC)c3c4c(OC)cc(=O)c5c(NCCCC(=O)OCCOCCOCCOCCOCCOCCOC)c(OC)c6c(c(c1C=C(C)C6)c23)c54 numericresult=624

// maximum absorption wavelength lookup, compound = COc1c2c3c4c(c(NCC[N+]56CC[N+](C)(CC5)CC6)c(=O)c5c(NCC[N+]67CC[N+](C)(CC6)CC7)cc(OC)c(c6c(OC)cc(O)c(c1=O)c63)c54)C=C(C)C2C(C)=O (stereo not drawn) [HB-41c] , result: 621

// maximum absorption wavelength lookup, compound = COc1c(O)c2c(=O)cc(OC)c3c4c(OC)cc(=O)c5c(NCCCC(=O)O)c(NCCCC(=O)O)c6c(c(c1C(C(C)=O)C(C)=C6)c23)c54 (stereo not drawn) , result: 622
